Data credit: paper PMC6125551

# conditions: male, human, in vivo, Terminal t1/2, 0 mg relebactam + 500 mg imipenem/cilastatin, panel K, day 1
measurement kind: half-life (min)
Value expressed in min; do not type the unit.

For CC1(C)C[C@@H]1C(=O)N/C(=C\CCCCSC[C@H](N)C(=O)O)C(=O)O , what is its reported half-life?
54.5

----------
Entries and their measured CL renal follow.
# assay explanation: Urine pharmacokinetics, single dose, study 2
# conditions: both, human, urine and plasma, intravenous, CLR, range, adult participants (men and women)

compound="C[C@@H](O)[C@H]1C(=O)N2C(C(=O)O)=C(SCCN=CN)C[C@H]12 [Imipenem]" result="98.6 to 108 mL/min"

For O=C(NC1CCNCC1)[C@@H]1CC[C@@H]2CN1C(=O)N2OS(=O)(=O)O [Relebactam] , what is its reported CL renal?
106 to 158 mL/min

----------
# assay explanation: Plasma pharmacokinetics, single dose as 30-min i.v. infusion, study 1 part I, healthy men
# conditions: male, human, plasma, intravenous, 50 mg, CEOI, relebactam 50 mg alone, single dose
measurement kind: concentration at 30 min (µM)
Value expressed in µM; do not type the unit.

For O=C(NC1CCNCC1)[C@@H]1CC[C@@H]2CN1C(=O)N2OS(=O)(=O)O , what is its reported concentration at 30 min?
9.04

----------
# assay explanation: clinical
# conditions: male, human, in vivo, 1000 mg, CLR
measurement kind: CL renal (mL/min)
Value expressed in mL/min; do not type the unit.

For O=C(NC1CCNCC1)[C@@H]1CC[C@@H]2CN1C(=O)N2OS(=O)(=O)O , what is its reported CL renal?
127

----------
# assay explanation: clinical
# conditions: male, human, in vivo, 50 mg, CLR
measurement kind: CL renal (mL/min)
Value expressed in mL/min; do not type the unit.

For O=C(NC1CCNCC1)[C@@H]1CC[C@@H]2CN1C(=O)N2OS(=O)(=O)O , what is its reported CL renal?
166

----------
# assay explanation: clinical
# conditions: male, human, in vivo, 500 mg, CLR
measurement kind: CL renal

For O=C(NC1CCNCC1)[C@@H]1CC[C@@H]2CN1C(=O)N2OS(=O)(=O)O , what is its reported CL renal?
129 mL/min

----------
# conditions: male, human, in vivo, Terminal t1/2, 50 mg relebactam + 500 mg imipenem/cilastatin, panel C, day 1
measurement kind: half-life
Quick note: unit goes after the number.

For CC1(C)C[C@@H]1C(=O)N/C(=C\CCCCSC[C@H](N)C(=O)O)C(=O)O , what is its reported half-life?
1.01 h

----------
# assay explanation: clinical
# conditions: male, human, in vivo
measurement kind: AUC(0-t) (µM·h)
Value expressed in µM·h; do not type the unit.

For C[C@@H](O)[C@H]1C(=O)N2C(C(=O)O)=C(SCCN=CN)C[C@H]12 , what is its reported AUC(0-t)?
138

----------
# assay explanation: Plasma pharmacokinetics, single dose as 30-min i.v. infusion, study 1 part I, healthy men
# conditions: male, human, plasma, intravenous, 500 mg, CL, relebactam 500 mg alone, single dose
measurement kind: clearance
Quick note: unit goes after the number.

For O=C(NC1CCNCC1)[C@@H]1CC[C@@H]2CN1C(=O)N2OS(=O)(=O)O , what is its reported clearance?
135 mL/min

----------
# assay explanation: Plasma pharmacokinetics, single dose as 30-min i.v. infusion, study 1 part I, healthy men
# conditions: male, human, plasma, intravenous, 250 mg, Vz, relebactam 250 mg alone, single dose
measurement kind: Vd

For O=C(NC1CCNCC1)[C@@H]1CC[C@@H]2CN1C(=O)N2OS(=O)(=O)O , what is its reported Vd?
20.8 L

----------
# assay explanation: clinical
# conditions: male, human, plasma, intravenous, 500 mg
measurement kind: clearance
Quick note: unit goes after the number.

For C[C@@H](O)[C@H]1C(=O)N2C(C(=O)O)=C(SCCN=CN)C[C@H]12 , what is its reported clearance?
201 mL/min

----------
# assay explanation: clinical
# conditions: male, human, in vivo, 500 mg
measurement kind: Vd (L)
Value expressed in L; do not type the unit.

For CC1(C)C[C@@H]1C(=O)N/C(=C\CCCCSC[C@H](N)C(=O)O)C(=O)O , what is its reported Vd?
16.5

----------
# assay explanation: clinical
# conditions: male, human, in vivo, 500 mg
measurement kind: AUC(0-inf) (µM·h)
Value expressed in µM·h; do not type the unit.

For CC1(C)C[C@@H]1C(=O)N/C(=C\CCCCSC[C@H](N)C(=O)O)C(=O)O , what is its reported AUC(0-inf)?
114

----------
# assay explanation: Plasma pharmacokinetics, single dose as 30-min i.v. infusion, study 1 part I, healthy men
# conditions: male, human, plasma, intravenous, 50 mg, Vz, relebactam 50 mg alone, single dose
measurement kind: Vd (L)
Value expressed in L; do not type the unit.

For O=C(NC1CCNCC1)[C@@H]1CC[C@@H]2CN1C(=O)N2OS(=O)(=O)O , what is its reported Vd?
20.5

----------
# assay explanation: Plasma pharmacokinetics, single dose as 30-min i.v. infusion, study 1 part I, healthy men
# conditions: male, human, plasma, intravenous, 500 mg, t1/2, relebactam 500 mg alone, single dose
measurement kind: half-life (min)
Value expressed in min; do not type the unit.

For O=C(NC1CCNCC1)[C@@H]1CC[C@@H]2CN1C(=O)N2OS(=O)(=O)O , what is its reported half-life?
98.4

----------
# assay explanation: Plasma pharmacokinetics, single dose as 30-min i.v. infusion, study 1 part I, healthy men
# conditions: male, human, plasma, intravenous, 1150 mg, t1/2, relebactam 1,150 mg alone, single dose
measurement kind: half-life

For O=C(NC1CCNCC1)[C@@H]1CC[C@@H]2CN1C(=O)N2OS(=O)(=O)O , what is its reported half-life?
1.78 h

----------
# assay explanation: Plasma pharmacokinetics, single dose as 30-min i.v. infusion, study 1 part I, healthy men
# conditions: male, human, plasma, intravenous, 1150 mg, CL, relebactam 1,150 mg alone, single dose
measurement kind: clearance
Quick note: unit goes after the number.

For O=C(NC1CCNCC1)[C@@H]1CC[C@@H]2CN1C(=O)N2OS(=O)(=O)O , what is its reported clearance?
141 mL/min

----------
# assay explanation: clinical
# conditions: male, human, in vivo, 500 mg
measurement kind: concentration at 30 min (µM)
Value expressed in µM; do not type the unit.

For CC1(C)C[C@@H]1C(=O)N/C(=C\CCCCSC[C@H](N)C(=O)O)C(=O)O , what is its reported concentration at 30 min?
101

----------
# conditions: male, human, in vivo, AUC0-6, 0 mg relebactam + 500 mg imipenem/cilastatin, panel I, day 1, N 1
measurement kind: AUC(0-t)

For CC1(C)C[C@@H]1C(=O)N/C(=C\CCCCSC[C@H](N)C(=O)O)C(=O)O , what is its reported AUC(0-t)?
167 µM·h

----------
# assay explanation: clinical
# conditions: male, human, in vivo, 25 mg, CLR
measurement kind: CL renal (mL/min)
Value expressed in mL/min; do not type the unit.

For O=C(NC1CCNCC1)[C@@H]1CC[C@@H]2CN1C(=O)N2OS(=O)(=O)O [Relebactam] , what is its reported CL renal?
177

----------
# assay explanation: clinical
# conditions: male, human, in vivo, 500 mg, CLR, mean (95% CI)
measurement kind: CL renal (mL/min)
Value expressed in mL/min; do not type the unit.

For C[C@@H](O)[C@H]1C(=O)N2C(C(=O)O)=C(SCCN=CN)C[C@H]12 , what is its reported CL renal?
108

----------
# assay explanation: clinical
# conditions: male, human, plasma, intravenous, 500 mg
measurement kind: half-life (h)
Value expressed in h; do not type the unit.

For C[C@@H](O)[C@H]1C(=O)N2C(C(=O)O)=C(SCCN=CN)C[C@H]12 [Imipenem] , what is its reported half-life?
1.13

----------
# assay explanation: Plasma pharmacokinetics, single dose as 30-min i.v. infusion, study 1 part I, healthy men
# conditions: male, human, plasma, intravenous, 1150 mg, Vz, relebactam 1,150 mg alone, single dose
measurement kind: Vd (L)
Value expressed in L; do not type the unit.

For O=C(NC1CCNCC1)[C@@H]1CC[C@@H]2CN1C(=O)N2OS(=O)(=O)O [Relebactam] , what is its reported Vd?
21.6

----------
# assay explanation: Plasma pharmacokinetics, single dose as 30-min i.v. infusion, study 1 part I, healthy men
# conditions: male, human, plasma, intravenous, t1/2, observed, compared with relebactam
measurement kind: half-life (h)
Value expressed in h; do not type the unit.

For C[C@@H](O)[C@H]1C(=O)N2C(C(=O)O)=C(SCCN=CN)C[C@H]12 [Imipenem] , what is its reported half-life?
1.1

----------
# assay explanation: Plasma pharmacokinetics, single dose as 30-min i.v. infusion, study 1 part I, healthy men;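 further: plasma analyte levels quantified by HILIC with tandem mass spectrometry, parameters derived noncompartmentally in WinNonlin, AUC by linear-up log-down trapezoidal rule, clearance taken as dose over AUC0–∞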
# conditions: male, human, plasma, intravenous, 1000 mg, CEOI, relebactam 1,000 mg alone, single dose
measurement kind: concentration at 30 min (µM)
Value expressed in µM; do not type the unit.

For O=C(NC1CCNCC1)[C@@H]1CC[C@@H]2CN1C(=O)N2OS(=O)(=O)O , what is its reported concentration at 30 min?
209
